Field: apparent KD of MS2 coat protein. Provide a value for each of the sequences that follow.
Tested on: MS2 coat protein
test_protocol: apparent KD of MS2 coat protein, switch ON state; designed switch direction (-1 OFF switch, 1 ON switch): 1; higher = weaker reporter binding
cond: FMN input: 0 or 200 uM; Eterna round: R93 (includes R88 designs)

Request: Using known records, supply apparent KD of MS2 coat protein for AACAAUCUAUCUGAGGAUAUCAUGUAAAAAACAUGAGGAUCACCCAUGUGCAGGAAAACUGCAUAUGAGAAGGCAGAUAGAUUGA [SS2 :P - 600]
Response: 0.0981 µM

Request: // fetch apparent KD of MS2 coat protein given entry UUACAGCACAGGUAGGAUAUGUAGGGUGGUACAUGAGGAUCACCCAUGUAUCCACCCUUCGAAAGGCAGAAGGGCCUGUCGCUGC [Arsora]
Response: 0.0246 µM

Request: Item UGGAAACAUGAGGAUCACCCAUGUAAAAGGUGGUCAGGAUAUGCGAAAAGAAAAAGAAAAGUAGAAGGGACAAGAA [Mod of Eli's Mod] : provide apparent KD of MS2 coat protein
Response: 0.0659 µM

====

Tested on: MS2 coat protein
test_protocol: apparent KD of MS2 coat protein, switch OFF state (with FMN for OFF switches, without FMN for ON switches); designed switch direction (-1 OFF switch, 1 ON switch): -1; higher = weaker reporter binding
cond: FMN input: 0 or 200 uM; Eterna round: R93 (includes R88 designs)
For each of the sequences below, state its apparent KD of MS2 coat protein.
Give the number; nM is assumed, so skip it.

Request: Specify the recorded apparent KD of MS2 coat protein for AGAAACGUAGGAUAUACAUGAGGAUCACCCAUGUAAAGAAAGAAGGGAGCCACAAGAAGUAGAAGGACGAAGAA [JR_Exc003_Sub004] , system: MS2 coat protein.
Response: 131

Request: Fetch value of apparent KD of MS2 coat protein on MS2 coat protein for AGCUAGUCAGGAUAUACGAAAAUGUCAGAAGCUGUGAAGGGACAUGAGGAUCACCCAUGUAGAAGGGACUAGCA [Diamond 38] .
Response: 218

Request: Report the value of apparent KD of MS2 coat protein obtained on MS2 coat protein for AAAAAGUGAGGAUAUAGCAAAGGUCACGAAAGUGACAAAGGCUAGAAGGCACAUGAGGAUCACCCAUGUCCAAG [Mat - Exclusion 4 - Eli mod - D98] .
Response: 56.5

Request: State apparent KD of MS2 coat protein on MS2 coat protein. Entry: AAGAACGUAGGAUAUACAUGAGGAUCACCCAUGUAAAAGAAAGAAAGGGAAAAGAAAAGUAGAAGGACGAAGAA [Hedjkheperre-setepenre Shoshenq I]
Response: 77.9

Request: GET apparent KD of MS2 coat protein where system = MS2 coat protein and item = AAAAAGGGAGGAUAUACAUGAGGAUCACCCAUGUAACAGACGAAAAAGAGUCUGAAAAGUAGAAGGCCCAAAAA [65%, Moding Exclusion3-cac2, 7]
Response: 19.2

Request: Fill: apparent KD of MS2 coat protein (MS2 coat protein) for this sequence CUCAUGUCAGGAUAUCAGUAGUAAAAAAAUAAAAUUACUACUGAGAAGGGACAUGAGGAUCACCCAUGUAAAAA [EX4 363: Super Stable 63]
Response: 23.2

====

Test system: MS2 coat protein
test_protocol: apparent KD of MS2 coat protein; higher = weaker reporter binding
cond: Eterna round: R107; input ligand: tryptophan 2.4 mM
Decide using apparent KD of MS2 coat protein: a value greater than or equal to 50 nM is Met, a smaller one is Not met.

Request: # check: apparent KD of MS2 coat protein of UGUAUGUGAUGUGAUACCAGUCCAAUACUGGUAACAUGAGGAUCACCCAUGUAAUGAUGGGACCCUUGGCAGCACAUCGCAUACU [ThBS] is greater than or equal to 50 nM
Response: Met

Request: // inclusive: apparent KD of MS2 coat protein at least 50 nM? input: UGGCAGCACCUCAUGUGCUGCCAAGGUGAUACCAGCAUCGAAAGAUGCCCUUGGCAGCACCAACAUGAGGAUCACCCAUGUAAUA [(MT)''-(M)'-(T')-(Theo)-(Ms2)_Design1/22_7]
Response: Met

Request: apparent KD of MS2 coat protein >= 50 nM for GGGCCUAUCUGAAGGAGCGACAUGAGGAUCACCCAUGUCUCCCGUUAUGGGAGUUCUUUAGGUCAGGUAGGUCGCAGGUAGGGCC [#1 Exclusion - Arginine B Attempt #5 (Inspired by Omei)] ?
Response: Not met

Request: # check: apparent KD of MS2 coat protein of GCUAGGUCUACGGCCGCCACUAGACGUGGGUAAGACAUGAGGAUCACCCAUGUACUACAGGCGCAUAGGACCGGGUAGACCUAGC [SSTB NP+V+V2 #11 Same Structure] is greater than or equal to 50 nM
Response: Not met

Request: hey, is apparent KD of MS2 coat protein for this one >= 50 nM? AGCGGCUCGAAAGAGUCGCACUCAUGUGAAGGAGCGCCCGUAAGGGCAGGUAGGUCGCACAUGAGGAUCACCCAUGUACCUUCUA [MAT - Exclusion Arginine A - Mod of Eli - D20]
Response: Met

Request: State whether the measured apparent KD of MS2 coat protein reaches 50 nM, counting equality as reaching it, for CUCCCGUGGUCGGCCGCCACUGGAGGCCUCGCGCGACAUGAGGAUCACCCAUGUUGGCCCGGCCUCAGGACCGGGAUCGCGUGAG [#1 Same State - Tryptophan B Attempt #7 (HarryS)]
Response: Not met

Request: Quick check, apparent KD of MS2 coat protein >= 50 nM? GGUUAGGUUUUUGAUACCAGCUAUUGGUGUCAUCUGAGGAUCACCCAGGUCUUGUGUUUUAGCCCUUGGCAGCAAAAGUUUAGUC [SSTheo B #28]
Response: Met

Request: Determine whether measured apparent KD of MS2 coat protein meets or exceeds 50 nM for CGCCUACAGGUGUACUAUUGUGGUGAAGAUACCAGAUAGCCCAAUAUCCCUUGGCAGCUUCAGACAUGAGGAUCACCCAUGUAUC [theeternabot_exclusion_MS2_Theo_A_30]
Response: Not met

Request: Dear colleague, could you confirm whether GGACUAACCAGAAGGAGCGACACAAGCAGAAACUGCAAUCCUCCGCACGAGGAUCACCCGUGUCAGGUAGGUCGCUGGUUAGUCG [ArgBX 28] has apparent KD of MS2 coat protein at or above 50 nM?
Response: Met

Request: Could you please find out whether CUCUGAGUGAGAAAUCACUCAGAGGCGGAUACCAGCGAGGUCCAUCGCCCUUGGCAGCCGAACAUGAGGAUCACCCAUGUCGGUA [#1 Same State - Theophylline A Attempt #21 (HarryS)] has apparent KD of MS2 coat protein that meets 50 nM or exceeds it?
Response: Not met

====

Test system: MS2 coat protein
test_protocol: apparent KD of MS2 coat protein; higher = weaker reporter binding
cond: Eterna round: R107; input ligand: theophylline 20 uM
measured_quantity: apparent KD of MS2 coat protein (µM)
State just the number; it will be interpreted in µM.

Request: Supply reported apparent KD of MS2 coat protein belonging to this sequence: GGGACAUCGGGAAGGAGCGCAUCCAAACCACACAUGAGGAUCACCCAUGUAUAAAUAUGCAUGCAGGUAGGUCGCCCGGUGUCUC [Ersoatus]
Response: 0.131

Request: Give me measured apparent KD of MS2 coat protein, please, for this sequence: UUUAGUCAAUCGGCCGCCACUGACAUGAGGAUCACCCAUGUAGGUAAGGAUCAACCUCGAAAGUACAGGACCGGGAUUCGCCUCU [theeternabot_exclusion_MS2_Trp_B_45]
Response: 0.0676

Request: Please report the measured apparent KD of MS2 coat protein for CGAAUACCAAUUGAUACCAGCAUGUUAACAUGAGGAUCACCCAUGUUAAGGAUAACAUAAUGCCCUUGGCAGCAACGUAAAUUCG [Aa]
Response: 0.0229

Request: Tell me its apparent KD of MS2 coat protein given AUCGUACCUGAGGAUACCAGCAUGUGAUCAUAACAUGAGGAUCACCCAUGUAAUCAGUGAUGCCCUUGGCAGCUUGAUCGGUACA [Same State - Theophylline B (Freestyle 11)] as the entry.
Response: 0.0836

Request: Could you please provide reported apparent KD of MS2 coat protein for AUUAACUGGUAAGAUACCAGAGUCGGGAUCUACAUGAGGAUCACCCAUGUUCUAAAGUCGCUCCCUUGGCAGCUUCAAUGAGUCG [theeternabot_sameState_MS2_Theo_B_27] ? Thanks!
Response: 0.0459

Request: In one line, give reported apparent KD of MS2 coat protein of the entry AAAUAAAUAACUGAUACCAGUGUACUGACAUGAGGAUCACCCAUGUUGGGUUUGGUUGUACACCCUUGGCAGCAGAAAUAUAAAA [test (nupak] .
Response: 0.0206
